target: human recombinant HDAC6 (Homo sapiens, UniProt Q9UBN7); construct: purchased Calbiochem Inc. 382180; assay: HDAC6 enzyme activity inhibition (HDAC Fluorimetric Drug Discovery Kit); type: biochemical; settings: human recombinant HDAC6, same protocol as HDAC1
Sequence (Q9UBN7 whole entry): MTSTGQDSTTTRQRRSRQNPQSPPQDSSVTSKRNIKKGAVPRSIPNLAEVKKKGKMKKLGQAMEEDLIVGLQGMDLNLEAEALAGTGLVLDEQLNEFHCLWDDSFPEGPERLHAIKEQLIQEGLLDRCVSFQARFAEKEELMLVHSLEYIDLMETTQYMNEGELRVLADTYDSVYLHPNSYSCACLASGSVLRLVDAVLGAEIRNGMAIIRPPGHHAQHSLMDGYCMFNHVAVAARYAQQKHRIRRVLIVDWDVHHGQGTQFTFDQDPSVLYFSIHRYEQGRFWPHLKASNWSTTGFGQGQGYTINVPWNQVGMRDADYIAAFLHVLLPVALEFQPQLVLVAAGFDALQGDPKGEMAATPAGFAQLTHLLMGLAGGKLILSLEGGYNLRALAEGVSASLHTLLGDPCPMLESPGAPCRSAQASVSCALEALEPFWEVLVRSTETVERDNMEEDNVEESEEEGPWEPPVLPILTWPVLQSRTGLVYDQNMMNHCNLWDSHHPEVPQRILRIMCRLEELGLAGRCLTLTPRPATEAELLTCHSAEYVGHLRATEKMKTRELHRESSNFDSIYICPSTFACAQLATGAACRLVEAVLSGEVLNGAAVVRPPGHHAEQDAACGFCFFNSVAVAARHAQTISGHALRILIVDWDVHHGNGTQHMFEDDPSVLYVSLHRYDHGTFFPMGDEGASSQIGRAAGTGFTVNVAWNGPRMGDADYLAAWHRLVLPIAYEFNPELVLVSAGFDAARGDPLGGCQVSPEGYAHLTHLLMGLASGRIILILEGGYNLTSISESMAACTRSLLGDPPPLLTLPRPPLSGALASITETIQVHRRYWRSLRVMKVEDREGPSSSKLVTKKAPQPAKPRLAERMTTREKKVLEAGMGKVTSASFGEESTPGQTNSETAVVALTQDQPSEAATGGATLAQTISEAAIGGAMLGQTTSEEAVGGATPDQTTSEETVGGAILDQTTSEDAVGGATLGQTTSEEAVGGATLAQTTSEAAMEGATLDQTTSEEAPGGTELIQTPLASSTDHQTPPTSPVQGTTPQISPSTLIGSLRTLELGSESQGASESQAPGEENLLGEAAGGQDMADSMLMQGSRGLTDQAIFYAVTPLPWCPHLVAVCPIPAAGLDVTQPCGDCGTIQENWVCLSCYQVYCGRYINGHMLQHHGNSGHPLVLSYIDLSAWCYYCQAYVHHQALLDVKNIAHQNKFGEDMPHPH
measurement-label: IC50 (nM)

INSERT INTO assay_data (smiles_entry, measurement_label, value_observed) VALUES
  ('FC(F)c1nnc(-c2ccc(Cn3cc(-c4ccc5c(c4)CN(C4CCC4)C5)nn3)nc2)o1', 'IC50', 37.4),
  ('CN(C)C1CCN(Cc2ccc(-c3cn(Cc4ccc(-c5nnc(C(F)F)o5)cn4)nn3)cc2)CC1', 'IC50', 21.2),
  ('CC(C)N1CCN(c2cc(-c3cn(Cc4ccc(-c5nnc(C(F)F)o5)cn4)nn3)ccn2)CC1', 'IC50', 15.4),
  ('CN1CCC(c2cccc(-c3cn(Cc4ncc(-c5nnc(C(F)F)o5)cc4F)nn3)c2)CC1', 'IC50', 46.5);

----------
target: human recombinant HDAC6 (Homo sapiens); construct: purchased Calbiochem Inc. 382180; assay: HDAC6 enzyme activity inhibition (HDAC Fluorimetric Drug Discovery Kit); format: biochemical; settings: human recombinant HDAC6, same protocol as HDAC1
pIC50: −log10 of the molar value.
measurement-label: pIC50

INSERT INTO measurements (smiles_entry, value_observed) VALUES
  ('C[C@@H]1CN(c2cccc(-c3cn(Cc4ncc(-c5nnc(C(F)F)o5)cc4F)nn3)c2)C[C@H](C)N1', 6.89),
  ('Fc1cc(-c2nnc(C(F)F)o2)ccc1Cn1cc(-c2ccc3c(c2)CN(C2CCOCC2)C3)nn1', 7.09),
  ('Fc1cc(-c2nnc(C(F)F)o2)ccc1Cn1cc(-c2ccc(N3CCNCC3)cc2F)nn1', 7.17),
  ('Fc1c(-c2cn(Cc3ccc(-c4nnc(C(F)F)o4)cn3)nn2)cccc1N1CCN(C2CCC2)CC1', 7.71);

----------
molecular target: human recombinant HDAC6 (Homo sapiens, UniProt Q9UBN7); construct: purchased Calbiochem Inc. 382180; assay: HDAC6 enzyme activity inhibition (HDAC Fluorimetric Drug Discovery Kit); assay type: biochemical; conditions: HDAC1 IC50 / HDAC6 IC50
measurement-label: HDAC6 selectivity (fold)

INSERT INTO results (compound, value_observed) VALUES
  ('FC(F)c1nnc(-c2ccc(Cn3cc(-c4ccc5c(CN6CCOCC6)c[nH]c5c4)nn3)nc2)o1 [Compound 3944]', 7462),
  ('Fc1cc(-c2nnc(C(F)F)o2)ccc1Cn1cc(-c2ccc3c(c2)CN(C2COC2)CC3)nn1 [Compound 4367]', 1210),
  ('CC(C)(C)OC(=O)N1CC(c2cn(Cc3ccc(-c4nnc(C(F)F)o4)cn3)nn2)C1 [Compound 3926]', 308),
  ('CCCCc1cn(Cc2ccc(-c3nnc(C(F)F)o3)cn2)nn1 [Compound 3832]', 263),
  ('CC(C)C(=O)N1CC(c2cn(Cc3ccc(-c4nnc(C(F)F)o4)cn3)nn2)C1 [Compound 3958]', 116),
  ('CCCN1CCC(Nc2cccc(-c3cn(Cc4ccc(-c5nnc(C(F)F)o5)cc4F)nn3)c2F)CC1 [Compound 4434]', 2392),
  ('CCN1CCN(Cc2ccc(-c3cn(Cc4ccc(-c5nnc(C(F)F)o5)cc4F)nn3)cc2)CC1 [Compound 4474]', 1213),
  ('CC(C)(C)OC(=O)N1CCC(c2cn(Cc3ccc(-c4nnc(C(F)F)o4)cn3)nn2)C1 (centres unmarked) [Compound 3820]', 294);
